Assay: qHTS for Inhibitors of ATXN expression: Validation (AID 588378); note: nearly all actives have a fitted effect of over 75% in size
Details: cell-based ATXN2 expression reporter assay, luminescence; series mostly up to 57.1 µM
Records with an inconclusive call do not appear. Calls of active or inactive are those of the source. Calls come from the whole dose curve; as a rule, active = well fitted inhibition curve with a large enough effect; inconclusive = small, poorly fitted or top-dose-only effect; inactive = no such curve, though single readings can be large or run the other way.
Respond only with the outcome that fits, drawn from active, inactive

• C[C@H](Cc1ccc2c(c1)OC(C(=O)O)(C(=O)O)O2)NC[C@H](O)c1cccc(Cl)c1 = inactive

[in] // return assay outcome for C[N+]1(C)CCN(c2ccccc2)CC1
[out] inactive

[in] // return assay outcome for CN1CCc2cccc(Cl)c2CC1
[out] inactive

---

Target: N-terminal Xaa-Pro-Lys N-methyltransferase 1 (Homo sapiens)
Assay: qHTS Assay for Inhibitors of N-terminal methyltransferase 1 (NTMT1): LOPAC validation of the NTMT1 SAHH-coupled ThioGlo3 Assay (AID 1347143);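 note: SAH from peptide methylation measured as thiol fluorescence via SAHH coupling and ThioGlo3; nearly all actives have a fitted effect of over 70% in size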
Details: recombinant NTMT1, SAHH-coupled ThioGlo3 fluorescence; series mostly up to 114 µM
Records with an inconclusive call do not appear. The source made the active and inactive calls. Calls come from the whole dose curve; as a rule, active = well fitted inhibition curve with a large enough effect; inconclusive = small, poorly fitted or top-dose-only effect; inactive = no such curve, though single readings can be large or run the other way.
Respond only with the outcome that fits, drawn from active, inactive

• CN(N=O)c1ccc(O)c(O)c1 = active
• CC(N)c1cccc(Cl)c1Cl (stereo not drawn) = inactive
• CCCN1CCc2cc(O)cc3c2[C@H]1Cc1ccc(O)c(O)c1-3 = active

[in] // return assay outcome for O=[N+]([O-])/C=C/c1ccc2c(c1)OCO2
[out] active

[in] // return assay outcome for OCc1cnc[nH]1
[out] inactive

[in] // return assay outcome for CN1CCc2cccc(Cl)c2CC1
[out] inactive

[in] // return assay outcome for CCN(CC)c1ncnc2c1ncn2[C@@H]1O[C@H](COP(=O)(O)OP(=O)(O)C(Br)(Br)P(=O)(O)O)[C@@H](O)[C@H]1O
[out] inactive

[in] // return assay outcome for O=C(NC1CN2CCC1CC2)c1cc2ccoc2cn1 (stereo not drawn)
[out] inactive
